Recorded IC50 values for a group of compounds are listed next.
Tested on: HepG2 liver cancer cells
Test: MTT cytotoxicity assay, HepG2
Format: cell-based
Settings: 48 h, mean ± SD of three experiments, NA = no or negligible activity in initial crystal violet screening
Expressed in µM, but write only the number.

> print(dat)
                                   compound  assay.metric  obs.value
1  O=C1CC(c2ccc(Br)cc2)C(C(=O)Nc2ccccn2)(C(=O)Nc2ccccn2)C(c2ccc(Br)cc2)C1 (centres unmarked)          IC50          8

# context switch: different compound, same IC50
Query :: Record N.N.[Cl][Pt][Cl] [Cisplatin, reference compound] : what is its IC50 with HepG2 liver cancer cells?
Result :: 10
